# Tested on: Cryptosporidium parvum
# PROTOCOL_DESCRIPTION: Antiparasitic activity against Cryptosporidium parvum infected in human HCT-8 cells assessed as parasitic growth inhibition measured for 48 hrs by fluorescence based microscopic analysis
# Assay type: functional, organism-based
# SETTINGS: HCT-8, time 48 hrs
Measured EC90 of individual entries
Number only, in nM; omit the unit.

{"QUERY_SMILES": "CN1C(=O)[C@@H](NC(=O)[C@H](CCC(F)(F)F)[C@H](CCC(F)(F)F)C(N)=O)N=C(c2ccccc2)c2ccccc21", "UNIT_OF_MEASURE": "nM", "VALUE_MEASURED": 2.3}
{"QUERY_SMILES": "CN1C(=O)[C@H](NC(=O)[C@H](CCC(F)(F)F)CC(=O)N2CCCCC2)N=C(c2ccccc2)c2ccc(Oc3ccccc3)cc21", "UNIT_OF_MEASURE": "nM", "VALUE_MEASURED": 3610}
{"QUERY_SMILES": "CCCN(CCC)C(=O)C[C@@H](CCC(F)(F)F)C(=O)N[C@H]1N=C(c2ccccc2)c2ccccc2N(C)C1=O", "UNIT_OF_MEASURE": "nM", "VALUE_MEASURED": 2790}

Next up:
Please tell me the measured EC90 for `CN1C(=O)[C@@H](NC(=O)[C@H](CCC(F)(F)F)CC(=O)N2CCCCC2)N=C(c2ccccc2)c2ccccc21` ; system: Cryptosporidium parvum.
16
